The reader will find reported residual activity values listed item by item below.
- measurement_target: CDK4 CCND1 (human) (UniProt P24385+P11802)
- Sequence (P11802 whole entry, looked up): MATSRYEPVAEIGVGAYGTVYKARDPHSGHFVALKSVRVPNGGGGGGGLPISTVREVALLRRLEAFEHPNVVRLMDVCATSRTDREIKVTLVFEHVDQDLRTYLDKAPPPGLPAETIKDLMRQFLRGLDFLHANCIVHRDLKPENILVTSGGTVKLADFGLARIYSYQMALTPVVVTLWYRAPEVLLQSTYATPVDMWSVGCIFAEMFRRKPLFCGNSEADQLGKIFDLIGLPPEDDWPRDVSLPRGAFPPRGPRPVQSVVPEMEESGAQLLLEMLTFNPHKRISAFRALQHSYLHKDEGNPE
- Sequence (P24385 whole entry, looked up): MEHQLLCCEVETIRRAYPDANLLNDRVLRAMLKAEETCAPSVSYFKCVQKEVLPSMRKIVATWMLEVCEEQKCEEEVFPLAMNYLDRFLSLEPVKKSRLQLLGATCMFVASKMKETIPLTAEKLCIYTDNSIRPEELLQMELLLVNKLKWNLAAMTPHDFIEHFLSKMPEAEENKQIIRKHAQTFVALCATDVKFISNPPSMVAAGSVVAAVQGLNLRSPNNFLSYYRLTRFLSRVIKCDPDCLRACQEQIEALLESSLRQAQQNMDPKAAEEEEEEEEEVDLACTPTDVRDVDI
- protocol_notes: radiometric filter-binding kinase assay, Kinase HotSpot
- cond: compound 0.5 µM; ATP 10 µM
assay_metric: residual activity (%)

{"compound": "CCN1/C(=C/C(C)=O)Sc2ccc(OC)cc21", "measured_result": 92.1}
{"compound": "NC(=O)c1ccc(N(C(N)=O)c2c(F)cccc2F)nc1-c1ccc(F)cc1F", "measured_result": 96.8}
{"compound": "O=C1Nc2cc(Br)ccc2/C1=C1/Nc2ccccc2/C1=N\\O", "measured_result": 93.4}
{"compound": "COc1cc2ncnc(Nc3ccc(F)c(Cl)c3)c2cc1OCCCN1CCOCC1", "measured_result": 94.3}
{"compound": "Oc1ccc(-c2nc(-c3ccc(F)cc3)c(-c3ccncc3)[nH]2)cc1", "measured_result": 105}
{"compound": "COc1cc2nccc(Oc3ccc(NC(=S)NC(=O)c4ccccc4C)cc3)c2cc1OC", "measured_result": 95.1}
{"compound": "Cc1ccc(NC(=O)c2ccc(CN3CCN(C)CC3)cc2)cc1Nc1nc(-c2cccnc2)cs1", "measured_result": 94.1}
{"compound": "CSc1nc(-c2ccc(F)cc2)c(-c2ccnc(NC(C)c3ccccc3)c2)[nH]1 (stereo not drawn)", "measured_result": 109}
{"compound": "CCCNC(=O)Nc1ccc(Oc2ncnc3cc(OC)c(OC)cc23)cc1Cl", "measured_result": 102}
{"compound": "Cc1cc(Nc2cc(N3CCN(C)CC3)nc(Sc3ccc(NC(=O)C4CC4)cc3)n2)[nH]n1", "measured_result": 97.4}
{"compound": "CC(C)[C@H](CO)Nc1nc(Nc2cccc(Cl)c2)c2ncn(C(C)C)c2n1", "measured_result": 83.4}
{"compound": "O=C(Nc1ccc(Cl)cc1)c1ccccc1NCc1ccncc1", "measured_result": 104}
{"compound": "C#Cc1cccc(Nc2ncnc3cc(OCCOC)c(OCCOC)cc23)c1", "measured_result": 96}
{"compound": "CC(C)n1cnc2c(Nc3cccc(Cl)c3)nc(NCCO)nc21", "measured_result": 77}
{"compound": "O=C1Nc2ccccc2/C1=C\\c1c(Cl)[nH]c2ccccc12", "measured_result": 98.4}
{"compound": "CS(=O)c1ccc(-c2nc(-c3ccc(F)cc3)c(-c3ccncc3)[nH]2)cc1 (stereo not drawn)", "measured_result": 105}
{"compound": "Clc1ccc(Nc2nnc(Cc3ccncc3)c3ccccc23)cc1", "measured_result": 96.6}
{"compound": "CC(C)(C)c1nc2c3ccc(F)cc3c3c(=O)[nH]ccc3c2[nH]1", "measured_result": 85.6}
{"compound": "Cc1cc2ncc(-c3ccccc3)nc2cc1C", "measured_result": 101}
{"compound": "O=c1cc(-c2cccc3c2Sc2ccccc2S3)oc(N2CCOCC2)c1", "measured_result": 112}
{"compound": "COc1ccc(-c2cnc3c(-c4ccsc4)cnn3c2)cc1", "measured_result": 69.8}
{"compound": "O=c1cc(N2CCNCC2)oc2c(-c3ccccc3)cccc12", "measured_result": 115}
{"compound": "Nc1nc(Nc2ccc(S(N)(=O)=O)cc2)nn1C(=S)Nc1c(F)cccc1F", "measured_result": 87.7}
{"compound": "NC(=O)c1ccc(-c2nc(-c3ccccn3)c(-c3ccc4c(c3)OCCO4)[nH]2)cc1", "measured_result": 84}
{"compound": "CCOc1nc(NC(=O)Cc2cc(OC)ccc2OC)cc(N)c1C#N", "measured_result": 97.6}
{"compound": "Nc1n[nH]c2nnc(-c3c(-c4ccccc4)nn4ccccc34)cc12", "measured_result": 89.2}
{"compound": "O=C(NC(NC(=S)Nc1ccc(F)c([N+](=O)[O-])c1)C(Cl)(Cl)Cl)C(c1ccccc1)c1ccccc1 (stereo not drawn)", "measured_result": 116}
{"compound": "Nc1nc(Nc2ccc(S(N)(=O)=O)cc2)nn1C(=O)c1c(F)cccc1F", "measured_result": 20}
